# PROTOCOL DESCRIPTION: blockers of IgG-bead uptake by macrophages – imaging, J774A.1 cells, IgG beads, primary screen (AID 1029);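 further: phagocytic index as fraction of beads internalized from green versus red external bead signal; plate controls were DMSO negative control for no effect and cytochalasin-D positive control for full effect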
# STATED CONDITIONS: J774A.1 macrophage IgG-bead phagocytosis, at 5 µM, active compounds read high
Among all 110,000 compounds or so, about 80 (0.07%) were called active. For the sample, actives were picked, then their nearest neighbours and some compounds at random.
OUTCOME MEASURE: inhibition

Past entries and their recorded results:
CC(=O)NC(Cc1ccccc1)C(=O)NC1CCN(c2ncccc2[N+](=O)[O-])CC1 (configuration not stated)	1.47% (inactive)
COc1ccc(/C=N/NC(=O)c2ccc(Cl)cc2)cc1COC(C)=O	-2.06% (inactive)
COc1ccc(/C=C/C(=O)OCC(=O)NCc2cccs2)cc1OC	-8.33% (inactive)

Looking up COC(C(=O)Nc1ccc(C(C)=O)cc1)c1ccccc1 (configuration not stated) , I see its inhibition listed as -7.11% (inactive)

Looking up COCCn1c(SCC(=O)Nc2ccc3c(c2)CCC3)nc2ccccc2c1=O , I see its inhibition listed as -6.84% (inactive)

Looking up COc1ccc(/C(C)=N/NC(=O)CCC(=O)Nc2ccc(Cl)cc2Cl)c(OC)c1 , I see its inhibition listed as 0.09% (inactive)

Looking up CC(=O)Nc1cccc(/C(C)=N/NC(=O)c2c(-c3ccccc3Cl)noc2C)c1 , I see its inhibition listed as -2.62% (inactive)

Looking up Cc1cc(F)ccc1S(=O)(=O)Nc1ncnc2scc(-c3ccc(F)cc3)c12 , I see its inhibition listed as 0.71% (inactive)

Looking up CC(C)(C)C(=O)N1CCC[C@@]1(CO)C(=O)O , I see its inhibition listed as 0.17% (inactive)

Looking up COc1cc2c(cc1/C=C1/NC(=O)N(c3ccccc3)C1=O)OCO2 , I see its inhibition listed as -3.27% (inactive)

---

# PROTOCOL DESCRIPTION: blockers of IgG-bead uptake by macrophages – imaging, J774A.1 cells, IgG beads, primary screen (AID 1029);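 further: phagocytic index as fraction of beads internalized from green versus red external bead signal; plate controls were DMSO negative control for no effect and cytochalasin-D positive control for full effect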
# STATED CONDITIONS: J774A.1 macrophage IgG-bead phagocytosis, at 5 µM, active compounds read high
About 80 (0.07%) of roughly 110,000 compounds were called active. This is one part of a sample in which actives are shown more often than they occur.
OUTCOME MEASURE: inhibition (%)
Dear colleague, please return just the value in %, with no unit written.

Past entries and their recorded results:
CC(C)(C)C1CCC(=NNC(=O)c2cc(-c3ccccc3)n[nH]2)CC1 (stereo unspecified)	0.48
CCS(=O)(=O)N1Cc2ccccc2CC1C(=O)Nc1nc2ccc(F)cc2s1 (stereo unspecified)	7.2
Cc1ccccc1OCC(=O)Nc1nc(C)c(C(=O)N(C)C)s1	-2.14
CC(=O)c1c(N2CCN(c3ccc(F)cc3)CC2)nc(=S)n(-c2ccccc2)c1C	-2.05
O=C(CN1CCc2ccccc21)NC(c1ccccc1)c1ccccc1	-5.11

Looking up COc1cc(C(=O)NNC(=O)c2ccc(S(=O)(=O)N3CCCCC3)cc2)cc(OC)c1OC , I see its inhibition listed as -4.43

Looking up O=C(c1cncc(Br)c1)N1CCN(c2ccc([N+](=O)[O-])cc2)CC1 , I see its inhibition listed as 1

Looking up Nc1nc(NC(=O)/C=C/c2ccccc2)nn1-c1ccccc1 , I see its inhibition listed as -0.41

Looking up S=C(NCc1ccc(Cl)cc1)NC1CCCCC1 , I see its inhibition listed as -3.92

Looking up Cc1c(Cl)c([N+](=O)[O-])nn1CCCC(=O)Nc1cc(Cl)ccc1Cl , I see its inhibition listed as -3.17

Looking up COC(=O)c1ccccc1NC(=S)NC(=O)c1ccccc1F , I see its inhibition listed as -2.31
